meta.source: patent US7098013B2

Readings of Content of others in the reaction mixture for the listed compounds
# System: α-isomaltosyl-transferring enzyme
# test protocol: Action of the purified N75 enzyme on saccharide substrates (saccharide composition by HPLC)
# Format: biochemical, Bacillus globisporus N75
# assay context: N75 enzyme 2 units/mM-substrate, 10 mM substrate, 30° C., pH 6.0, 12 hours
readout label: Content of others in the reaction mixture

[[record]]
compound = "OC[C@H]1O[C@H](OC[C@H]2O[C@H](O[C@H]3[C@H](O)[C@@H](O)[C@@H](O[C@H]4[C@H](O)[C@@H](O)[C@@H](O[C@H]5[C@H](O)[C@@H](O)[C@@H](O[C@H]6[C@H](O)[C@@H](O)C(O)O[C@@H]6CO)O[C@@H]5CO)O[C@@H]4CO)O[C@@H]3CO)[C@H](O)[C@@H](O)[C@@H]2O)[C@H](O)[C@@H](O)[C@@H]1O (stereo partly drawn) [6^5-O-α-Glucosylmaltopentaose, 6^5-O-α-glucosylmaltopentaose]"
tgt = "α-isomaltosyl-transferring enzyme"
val = "9.1%"

[[record]]
compound = "OC[C@H]1O[C@H](OC[C@H]2O[C@H](O[C@H]3[C@H](O)[C@@H](O)[C@@H](O[C@H]4[C@H](O)[C@@H](O)C(O)O[C@@H]4CO)O[C@@H]3CO)[C@H](O)[C@@H](O)[C@@H]2O)[C@H](O)[C@@H](O)[C@@H]1O (stereo partly drawn) [6^3-O-α-Glucosylmaltotriose, 6^3-O-α-glucosylmaltotriose]"
tgt = "α-isomaltosyl-transferring enzyme"
val = "12.4%"

[[record]]
compound = "OC[C@H]1O[C@H](OC[C@H]2O[C@H](O[C@H]3[C@H](O)[C@@H](O)C(O)O[C@@H]3CO)[C@H](O)[C@@H](O)[C@@H]2O)[C@H](O)[C@@H](O)[C@@H]1O (stereo partly drawn) [6^2-O-α-Glucosylmaltose, 6^2-O-α-glucosylmaltose]"
tgt = "α-isomaltosyl-transferring enzyme"
val = "9.7%"

[[record]]
compound = "OC[C@H]1O[C@H](OC[C@H]2O[C@H](O[C@H]3[C@H](O)[C@@H](O)[C@@H](O[C@H]4[C@H](O)[C@@H](O)[C@@H](O[C@H]5[C@H](O)[C@@H](O)C(O)O[C@@H]5CO)O[C@@H]4CO)O[C@@H]3CO)[C@H](O)[C@@H](O)[C@@H]2O)[C@H](O)[C@@H](O)[C@@H]1O (stereo partly drawn) [6^4-O-α-Glucosylmaltotetraose, 6^4-O-α-glucosylmaltotetraose]"
tgt = "α-isomaltosyl-transferring enzyme"
val = "8.6%"

